Species on record: Rattus norvegicus
Method notes: Open TG-GATES - Regimen: Single
Type: toxicity, organism-based, Sprague-Dawley
Set-up: regimen Single, gender Male, age 6 weeks
Run conditions: in vivo, po, 0 mg/kg, 6 h, tissue Plasma, route gavage, dose level Control
Each item that follows carries a reported TG.
Response body: numeric value in mg/dL, unit text excluded.

Return reported TG; argument: CN1C(=O)OC(C)(C)C1=O
49.6

Consider the compound shown here: CCSCC[C@H](N)C(=O)O What is its recorded TG?
88.6

Would you mind telling me what TG value was observed for Nc1nc(N)c2nc(-c3ccccc3)c(N)nc2n1 ?
84

Which TG value belongs to CCC(C)(C)C(=O)O[C@H]1C[C@@H](C)C=C2C=C[C@H](C)[C@H](CC[C@@H]3C[C@@H](O)CC(=O)O3)[C@H]21 ?
47.8

***
Given the compound CCN1CCCC1CNC(=O)c1cc(S(N)(=O)=O)ccc1OC (stereo not given) [SULPIRIDE] , what is its reported TG?
53
